Data origin: ChEMBL document CHEMBL3988442

# System: Mycobacterium tuberculosis
# Protocol text: Cornell - Phenotypic assay to identify agents that inhibit growth of Mycobacterium tuberculosis
# Assay type: functional
# Parameters: scale not given: direction of the effect not stated beside the values
# Conditions: 10 mM as filed; unlikely as a test dose
Hit rate of the full screen: of about 53,000 compounds, about 900 (1.7%) showed an effect of 50% or more. The sample holds strong results, similar compounds and a random draw of the others, so the mix is not that of the screen.
Experimental endpoint: Percent Effect (%)
Just the number please, in %, no unit attached.

Recorded results for 3 compounds are shown here.
Cc1cc(NCCNS(C)(=O)=O)nc2cc3c(cc12)CCC3    -25.91
CC(=O)NCCNc1nc(-c2ccccn2)nc2c1c(C)nn2C    12.46
COc1ccc(NC(=O)CCn2nc(-c3cccs3)oc2=O)cc1OC    -4.295

Request: Look at this compound and give its reported Percent Effect. COC1(CNC(=O)CCCc2ccccc2)CCSC1 (stereo not drawn)
Result: -5.448

Request: For the compound shown here, "Cc1ccc(S(=O)(=O)Nc2c(C)nc(N3CCCC3)nc2C)cc1" , give the reported Percent Effect.
Result: 52.33

* * *

# Tested on: Mycobacterium tuberculosis
# Protocol text: Cornell - Phenotypic assay to identify agents that inhibit growth of Mycobacterium tuberculosis
# Assay type: functional
# Set-up: scale not given: direction of the effect not stated beside the values
# Conditions: 10 mM as filed; unlikely as a test dose
In all, about 53,000 compounds went through this assay and about 900 (1.7%) showed an effect of 50% or more. The entries come from a sample that favours strong results as a whole.
Experimental endpoint: Percent Effect (%)
Give the value in % but do not write % after it.

Cc1cc(CNc2cc(Cl)ccc2Cl)no1    51.97
COc1nccnc1-c1cc(NC2CCNCC2)nc2[nH]ccc12    48.16
Cc1occc1C(=O)N1CCCC(C2=Nc3ccccc3S(=O)(=O)N2)C1 (configuration not stated)    60.62
CCOc1c(Cl)cccc1NCc1cc(C)on1    15.54
CC(C)C[C@H](N)COc1cccc(F)c1Oc1ccc(Cl)cc1    107.4

Request: GET /values?readout=Percent Effect&item= "O=C(CN1CCOCC1)Nc1ccc(C(F)(F)F)cc1Cl"
Result: -3.484

* * *

# System: Mycobacterium tuberculosis
# Protocol text: Cornell - Phenotypic assay to identify agents that inhibit growth of Mycobacterium tuberculosis
# Format: functional
# Set-up: scale not given: direction of the effect not stated beside the values
# Conditions: 10 mM as filed; unlikely as a test dose
In all, about 53,000 compounds went through this assay and about 900 (1.7%) showed an effect of 50% or more. The sample holds strong results, similar compounds and a random draw of the others, so the mix is not that of the screen.
Response key: 1 means Percent Effect >= 20%; 0 means Percent Effect < 20%.

CCOC(=O)CN1CC(c2nc(-c3ccsc3)no2)C1.O=C(O)C(=O)O    1
CCc1ccc(S(=O)(=O)Nc2c(C)cccc2C(=O)O)s1    1
COc1cncc(-n2nc(C)c(CC(C)=O)c2C)c1    0
COCc1nn(Cc2ccc(Cl)s2)c(=O)o1    0
CCCSc1ncccc1C(=O)NCc1ccc(N(C)C)cc1    0
CCc1ccc(S(=O)(=O)Nc2cc(C(=O)O)c(F)cc2F)s1    0
Cn1ccc(CNC(=O)Nc2ccc(S(=O)(=O)C(F)F)cc2)c1    1
NC(=O)CCNCc1c(Cl)cccc1N1CCCC1    0

Request: Does the reported Percent Effect for "Cc1cs/c(=N\C(=O)Cn2nc(N3CCOCC3)ccc2=O)[nH]1" fall at or above the 20% mark?
Result: 1

Request: Does the reported Percent Effect for "CN(C)S(=O)(=O)N1CC(c2nc(-c3ccsc3)no2)C1" fall at or above the 20% mark?
Result: 0

Request: API: above_or_equal(metric=Percent Effect, cutoff=20%) for item "CCCNC(=O)CNC(=O)c1scnc1C"
Result: 0

Request: Reported Percent Effect at or above 20%? COC(=O)C(CCSC)NC(=O)Cc1c(C)nn(-c2ccccc2)c1C (centres undefined)
Result: 1

Request: Please check the record COc1ccccc1CCC(=O)N1CCCC(OCc2cccnc2)C1 (centres undefined) and state if its Percent Effect is at or above 20%.
Result: 0

Request: Reported Percent Effect at or above 20%? Cc1ccc(-c2cc(CN3CCCC(Cn4cncn4)C3)on2)cc1 (centres undefined)
Result: 0

Request: Could you tell me if the measured Percent Effect of CC(C)Cn1ccnc1CNC(=O)N1CCCC1CN1CCOCC1 (centres undefined) reaches 20% or more?
Result: 0

Request: # bool: Percent Effect of "O=C(c1cc(C2CC2)[nH]n1)N1CCN(Cc2ccsc2)CC1" >= 20%
Result: 0

Request: // inclusive: Percent Effect at least 20%? input: "O=C(c1cc(C2CC2)[nH]n1)N1CCN(Cc2ccc(Cl)cc2)CC1"
Result: 0

Request: Has COc1ccc(CNC(C)c2ccc(Cl)c(Cl)c2)c(OC)c1OC (centres undefined) a recorded Percent Effect greater than or equal to 20%?
Result: 1

Request: Would you say "Cc1nccn1-c1ccc(C(=O)NCC(F)(F)F)nn1" shows Percent Effect at minimum 20%?
Result: 0

Request: Hello, I need to know if CSCCC(NC(N)=O)C(=O)NCc1c(C)nn(-c2ccccc2)c1C (centres undefined) has measured Percent Effect not below 20%. Thanks!
Result: 0

Request: I'd appreciate it if you could say whether Cc1c(Br)c(C(F)F)nn1C(C)C(=O)O (centres undefined) has Percent Effect at least equal to 20%.
Result: 0

Request: Please tell me: is the compound "Cn1cc(CNC(=O)Nc2ccc(S(=O)(=O)C(F)F)cc2)cn1" at or over 20% in terms of Percent Effect?
Result: 1

Request: Could you please find out whether Cc1noc(C(C)Nc2ccc3c(c2)CCC3)n1 (centres undefined) has Percent Effect that meets 20% or exceeds it?
Result: 0

Request: Could you verify whether the entry COc1ccc(CNC(C)c2ccc(Cl)cc2)c(OC)c1OC (centres undefined) shows Percent Effect of no less than 20%?
Result: 0

Request: Form field: Percent Effect at least 20%? Entry: "COc1cccc(-c2nc(C)c(C(=O)N[C@H](CO)CCSC)s2)c1"
Result: 0

Request: Is it the case that "COc1ccccc1OC1CCN(c2nccc(N)n2)CC1" has Percent Effect reaching or exceeding 20%?
Result: 0

Request: Would you say Cc1cc(CNC(=O)NC(C)c2ccc(N3CCOCC3)cc2)no1 (centres undefined) shows Percent Effect at minimum 20%?
Result: 0

Request: Say whether "CCOCC(=O)N1CCCn2c(nnc2Cn2cccc2)C1" shows Percent Effect of 20% or more.
Result: 0

Request: Please check the record CCN1CCN(c2ccc(NC(C)c3nc(C(C)C)no3)c(C)c2)CC1 (centres undefined) and state if its Percent Effect is at or above 20%.
Result: 1
